- EXPERIMENTAL_DETAILS: Clearance (CL) / pharmacokinetics
- Assay type: in vivo, mice
- RECORDED_CONDITIONS: Table 4
READOUT: CL (mL/min/kg)
Numeric only. Scale: mL/min/kg

Record excerpt, results attached:
INSERT INTO results (compound, endpoint_value) VALUES
  ('CO[C@H](C(=NOCCNC(=O)c1[nH]c2ccc(C(F)(F)F)cc2c1-c1ccc(Cl)cc1)[C@@H](O)[C@@H](C)O)[C@@H]1Cc2cc3cc(O[C@H]4C[C@@H](O[C@H]5C[C@@H](O)[C@H](O)[C@@H](C)O5)[C@H](O)[C@@H](C)O4)c(C)c(O)c3c(O)c2C(=O)[C@H]1O[C@H]1C[C@@H](O[C@H]2C[C@@H](O[C@H]3C[C@](C)(O)[C@H](O)[C@@H](C)O3)[C@@H](O)[C@@H](C)O2)[C@H](O)[C@@H](C)O1 [YL-C67]', 0.167),
  ('COC(C(=NOCCNC(=O)c1[nH]c2ccc(Cl)cc2c1-c1cccs1)C(O)C(C)O)C1Cc2cc3cc(OC4CC(OC5CC(O)C(O)C(C)O5)C(O)C(C)O4)c(C)c(O)c3c(O)c2C(=O)C1OC1CC(OC2CC(OC3CC(C)(O)C(O)C(C)O3)C(O)C(C)O2)C(O)C(C)O1 (stereo not drawn) [YL-C106]', 0.317);

// next item, CL requested
CL in this record for COC(C(=NOCCNC(=O)c1[nH]c2ccc(C(F)(F)F)cc2c1-c1ccccc1)C(O)C(C)O)C1Cc2cc3cc(OC4CC(OC5CC(O)C(O)C(C)O5)C(O)C(C)O4)c(C)c(O)c3c(O)c2C(=O)C1OC1CC(OC2CC(OC3CC(C)(O)C(O)C(C)O3)C(O)C(C)O2)C(O)C(C)O1 (stereo not drawn) [YL-C66] : 0.2
